B1: LINE1-full (parent)
chain: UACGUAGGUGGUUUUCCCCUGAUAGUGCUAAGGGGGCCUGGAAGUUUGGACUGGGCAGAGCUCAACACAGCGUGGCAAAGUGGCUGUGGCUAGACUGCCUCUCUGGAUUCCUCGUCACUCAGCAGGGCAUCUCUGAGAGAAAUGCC

# Variants of: B1
# Assay overview: self-cleavage, relative activity (ratio to wild type); higher = more cleavage; in vitro, sequencing; the parent is a self-cleaving ribozyme
Quantity name: self-cleavage
Write the number on its own, no unit after it.

[
  {
    "Residue change": "A24G U109A",
    "self-cleavage": 2.43
  },
  {
    "Residue change": "C28U U81A",
    "self-cleavage": 1.44
  },
  {
    "Residue change": "U39G A64G",
    "self-cleavage": 0.09
  },
  {
    "Residue change": "A42G U108A",
    "self-cleavage": 0.71
  }
]

Requested field: self-cleavage. Item: A65G G75A
0.03

What do you get for A30G U39A ?
0.98

What do you get for G35A U115C ?
1.03

What do you get for U9C G58A ?
0.04

What do you get for U5C G55A ?
0.5

What do you get for A117U C146G ?
0.92

What do you get for U5C A141U ?
0.73

What do you get for U20C C98A ?
0.07
